Origin of values: patent US12195427B2

- ASSAY_SYSTEM: MASP-2 CCP2-SP (Homo sapiens (Human))
- Sequence (O00187 445-686): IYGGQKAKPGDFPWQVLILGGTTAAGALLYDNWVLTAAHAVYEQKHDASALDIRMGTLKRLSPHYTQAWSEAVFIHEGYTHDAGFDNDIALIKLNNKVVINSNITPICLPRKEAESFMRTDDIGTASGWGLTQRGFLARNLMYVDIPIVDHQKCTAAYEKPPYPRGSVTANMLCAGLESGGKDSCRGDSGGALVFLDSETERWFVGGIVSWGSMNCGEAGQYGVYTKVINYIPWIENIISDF
- Sequence (O00187 364-432 partner): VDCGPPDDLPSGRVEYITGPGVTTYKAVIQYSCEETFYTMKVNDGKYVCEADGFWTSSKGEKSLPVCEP
- MEASUREMENT_NOTES: MASP-2 co-crystallization, X-ray crystallography and structure analysis (H-bonds, van der Waals contacts);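 further: distance from averaged pharmacophore element to bound ligand; missing value means element absent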
- STATED_CONDITIONS: Table A4-1; element CA4
QUANTITY_KIND: Ligand-pharmacophore element distance, pharmacophore element CA4

# COMPOUND, VAL
data = [
    ("Cc1nc(N)ccc1CNC(=O)[C@H](C)NC(=O)[C@H]1C[C@H](Cc2ccccc2Br)CN1.O=C(O)C(F)(F)F.O=C(O)C(F)(F)F [1372_A]", 0),
    ("C[C@H](NC(=O)[C@H]1C[C@@H](c2ccccc2)CCN1)C(=O)NCc1cc(Cl)ccc1O.Cl [1078_10]", 0),
    ("C[C@H](NC(=O)[C@H]1C[C@@H](c2ccccc2)CCN1)C(=O)NCc1cc(Cl)ccc1O.Cl [1078_2]", 0),
    ("Cc1nc(N)ccc1CNC(=O)C(C)NC(=O)C1CC(c2cccc3ccccc23)CCN1.Cl.Cl (stereo not drawn) [1297_6]", 1.14),
    ("C[C@H](NC(=O)[C@H]1C[C@@H](c2ccccc2)CCN1)C(=O)NCc1cc(Cl)ccc1O.Cl [1078_16]", 0),
    ("CC(NC(=O)C(CCc1ccccc1)NCc1ccc(C(=O)N2CCOCC2)cc1)C(=O)NCc1ccc(C(=N)N)cc1.Cl.Cl (stereo not drawn)", 0),
]
